Hello, the source for this data is PubChem BioAssay (NCI), in case you need it.

- System: M14 melanoma
- test-summary: NCI tumour cell line growth inhibition, 48 h
readout-name: TGI

> print(dat)
                                   molecule  readout.name    result
1     NC12CCC(CC1=O)C2 (stereo unspecified)           TGI  > 100 µM
2  COc1ccc(C2C=C(c3ccc4c(c3)OCO4)Oc3c2c(=O)oc2ccccc32)cc1OC (stereo unspecified)           TGI  > 100 µM

Documented TGI of COc1ccc(C(=O)/C=C/c2ccc(OCCSCCCCCCCCCCSCCOc3ccc(/C=C/C(=O)c4ccc(OC)c(OC)c4)cc3)cc2)cc1OC : > 100 µM

Documented TGI of COc1cc(C2C(Cl)C(=O)N2NC(=O)c2ccc(N)cc2)cc(Br)c1O (stereo unspecified) : 29.2 µM

Documented TGI of COc1ccc2cc(-c3nc(N)nc(N4N=C(C)CC4(C)C)n3)c(=N)oc2c1 : 38.1 µM

Documented TGI of CSC12c3cc(C)n(-c4ccccc4)c3CC(C)(C)CN1C(=O)C2Oc1ccccc1 (stereo unspecified) : > 100 µM
